target: SNAP-hSPR (sepiapterin reductase, SPR) (Homo sapiens, UniProt P35270)
Sequence (P35270 whole entry): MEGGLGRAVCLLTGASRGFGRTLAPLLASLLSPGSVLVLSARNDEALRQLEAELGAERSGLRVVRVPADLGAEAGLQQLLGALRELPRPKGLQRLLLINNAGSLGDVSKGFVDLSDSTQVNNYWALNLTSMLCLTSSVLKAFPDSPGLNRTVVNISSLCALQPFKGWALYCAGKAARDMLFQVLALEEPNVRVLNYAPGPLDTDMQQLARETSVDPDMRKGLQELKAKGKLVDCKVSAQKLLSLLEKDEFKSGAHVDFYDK
assay-metric: IC50

Query string: # lookup: SNAP-hSPR (sepiapterin reductase, SPR) (Homo sapiens, UniProt P35270) IC50, key = `Cc1cc(=O)[nH]c(-n2nc(C)c(CC(=O)N3CCCC3)c2C)n1`
Result string: 200 nM

Query string: Report value only: IC50, SNAP-hSPR (sepiapterin reductase, SPR) (Homo sapiens, UniProt P35270), `Cc1c(C(=O)N2CCN(c3ncc(-c4cccc(F)c4)o3)CC2)cnn1-c1nn2cccc2c(=O)[nH]1`
Result string: 4 nM

Query string: Give IC50 only, for `Cc1c(C(=O)N2CCN(CC(F)(F)F)CC2)cnn1-c1nc2c(ccn2C)c(=O)[nH]1` , using SNAP-hSPR (sepiapterin reductase, SPR) (Homo sapiens, UniProt P35270) data.
Result string: 200 nM

Query string: Look up SNAP-hSPR (sepiapterin reductase, SPR) (Homo sapiens, UniProt P35270) data: IC50 of `Cc1c(C(=O)N2CCC(c3ccccc3)CC2)cnn1-c1nc2c(c(=O)[nH]1)CCC2` , then report it.
Result string: 3 nM

Query string: Report IC50 on SNAP-hSPR (sepiapterin reductase, SPR) (Homo sapiens, UniProt P35270) for this entry: `Cc1c(C(=O)N2CC[C@@H](N(C)C(=O)OC(C)(C)C)C2)cnn1-c1nc2c(c(=O)[nH]1)CCC2`
Result string: 3 nM

Query string: Give SNAP-hSPR (sepiapterin reductase, SPR) (Homo sapiens, UniProt P35270) IC50 for the following compound: `Cc1c(C(=O)N2CCN(c3nc(-c4cccc(Cl)c4)cs3)CC2)cnn1-c1nn2cccc2c(=O)[nH]1`
Result string: 10 nM

Query string: Retrieve IC50 on SNAP-hSPR (sepiapterin reductase, SPR) (Homo sapiens, UniProt P35270); query Cc1c(C(=O)N2CCC(C(C#N)CCF)CC2)cnn1-c1nn2cccc2c(=O)[nH]1 (centres unmarked)
Result string: 1 nM

Query string: State the measured IC50 (SNAP-hSPR (sepiapterin reductase, SPR) (Homo sapiens, UniProt P35270)) of `Cc1c(C(=O)N2CCN(c3nnc(-c4cccc(F)c4)o3)CC2)cnn1-c1nn2cccc2c(=O)[nH]1`
Result string: 7 nM

Query string: Fill: IC50 (SNAP-hSPR (sepiapterin reductase, SPR) (Homo sapiens, UniProt P35270)) for this compound `Cc1c(C(=O)N2CCC(c3c[nH]c4ccccc34)CC2)cnn1-c1nn2cccc2c(=O)[nH]1`
Result string: 6 nM

Query string: Look up and report measured IC50 (SNAP-hSPR (sepiapterin reductase, SPR) (Homo sapiens, UniProt P35270)) for the following compound: `Cc1c(C(=O)N2CCC(c3nc(C#N)cs3)CC2)cnn1-c1nn2cccc2c(=O)[nH]1`
Result string: 1 nM
